assay: Chemical stability 0.1M Tris buffer at pH 8.1 at 1 mg/ml at room temperature assessed as ratio of Asn-containing cyclic peptides after 24 hrs by HPLC method; assay type: physicochemical; conditions: read-out: Stability
Where a SMILES comes first, the peptide text is derived from it. Bridges are numbered along the chain shown (N, C = ends).
In this section, each of the molecules is paired with its reported remaining at 24 h, 1 mg/ml.

[
  {
    "molecule": "N=C(N)NCCC[C@@H]1NC(=O)CNC(=O)[C@H](CC(N)=O)NC(=O)CSC[C@@H](C(N)=O)NC1=O ({CH2CO}-NGRC-NH2; thioether N-4)",
    "remaining at 24 h, 1 mg/ml [%]": 19
  },
  {
    "molecule": "N=C(N)NCCC[C@@H]1NC(=O)CNC(=O)[C@H](CC(N)=O)NC(=O)[C@@H]2CCCN2C(=O)CSC[C@@H](C(N)=O)NC1=O ({CH2CO}-PNGRC-NH2; thioether N-5)",
    "remaining at 24 h, 1 mg/ml [%]": 67
  },
  {
    "molecule": "N=C(N)NCCC[C@@H]1NC(=O)CNC(=O)[C@H](CC(N)=O)NC(=O)CSCCC(C(N)=O)NC1=O (single isomer, unassigned)",
    "remaining at 24 h, 1 mg/ml [%]": 66
  }
]

Each recorded value in this set is attributed to ChEMBL document CHEMBL3414485.
